B1: CDC14A (parent)
chain: LNLAMVYRYCCKLNKKLKSYSLSR

- Variants of: B1
- test-details: protein stability index of a GFP-peptide fusion (GPS, HEK-293T) (PSI 1-6); higher = more stable;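 further: lentivirally expressed fusions sorted by FACS into six bins by GFP to DsRed ratio, PSI derived from sequencing read proportions per bin multiplied by bin number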
- experimental-parameters: c terminus: a fixed tail appended
value-type: protein stability index
One number for each entry.

{"sequence-chain": "LNLAMVYRYCCKLNKKLKSYQLSR [S21Q]", "protein stability index": 2.86}
{"sequence-chain": "LNLAMVYRYGCKLNKKLKSYSLSR [C10G]", "protein stability index": 2.71}
{"sequence-chain": "LNLYMVYRYCCKLNKKLKSYSLSR [A4Y]", "protein stability index": 2.91}
{"sequence-chain": "LNLAMVYRYFCKLNKKLKSYSLSR [C10F]", "protein stability index": 2.71}

Respectfully, I request protein stability index for each entry included below.
1. LNLAMVYRYVCKLNKKLKSYSLSR [C10V]
2. LNLAMVYRYSCKLNKKLKSYSLSR [C10S]
3. LNLAMVYRYCCKLNKKLKSYSDSR [L22D]
4. LFLAMVYRYCCKLNKKLKSYSLSR [N2F]
5. LNLAMVYRYCCKLNKKLKSYSLSN [R24N]
6. LNVAMVYRYCCKLNKKLKSYSLSR [L3V]

Completion:
[3.25, 2.28, 2.2, 1.04, 3.15, 2.59]
